Source listed as the supplement of paper PMC9170038.

Tested on: MS2 coat protein
methodSummary: apparent KD of MS2 coat protein; designed switch direction (-1 OFF switch, 1 ON switch): -1; higher = weaker reporter binding
reportedConditions: input ligand: none
Give apparent KD of MS2 coat protein for every item shown.
Answers are plain numbers, in µM.

Known apparent KD of MS2 coat protein results, listed for orientation:
CAAUAAAAGCGAGGAUAUCCGUAUAAAGAUACAGGAGAAGGUGCGGGUACUCCUCACAUGAGGAUCACCCAUGUAAGAAAUAAA [Erxeraso] (Eterna round: R96, puzzle: Exclusion NG 1) : 0.0571
AUGUUACUCUGAGGAUAUUGUUUAUUCUUCUCACAUGAGGAUCACCCAUGUUUCCAUGUUAACCGCAAGAAGGCAGUAUUGAUU [JR_ExcNG2_Sub030] (Eterna round: R96, puzzle: Exclusion NG 2) : 0.0551
AAAAUGUCAGGAUAUUGUUAGUUUAGUUGUUUGUAUUAGUUCGAGAAGGGACAUGAGGAUCACCCAUGUGAAAA [Ex4 #68] (Eterna round: R97, puzzle: Exclusion 4) : 0.0358
GUAGAGUCAGGAUAUACGAAUAGAUCGAUAGAUCAAUCCAUACAUGAGGAUCACCCAUGUAGAAGGGACUCUAC [Mat - Exclusion 2 - Eli Mod - D15] (Eterna round: R97, puzzle: Exclusion 2) : 0.0188

Now look at this entry.
Notebook: pull reported apparent KD of MS2 coat protein for MS2 coat protein, entry CCACUGUCAGGAUAUCGUGCAUACAACGAAAGUUCUAUGUGCGAGAAGGGACAUGAGGAUCACCCAUGUAAACG [Omei Ex4 A28] (Eterna round: R97, puzzle: Exclusion 4)
0.138
